STUDY SYSTEM: recombinant human NF-kappaB-inducing kinase (NIK/MAP3K14) (Homo sapiens (Human), UniProt Q99558)
Sequence (Q99558 whole entry): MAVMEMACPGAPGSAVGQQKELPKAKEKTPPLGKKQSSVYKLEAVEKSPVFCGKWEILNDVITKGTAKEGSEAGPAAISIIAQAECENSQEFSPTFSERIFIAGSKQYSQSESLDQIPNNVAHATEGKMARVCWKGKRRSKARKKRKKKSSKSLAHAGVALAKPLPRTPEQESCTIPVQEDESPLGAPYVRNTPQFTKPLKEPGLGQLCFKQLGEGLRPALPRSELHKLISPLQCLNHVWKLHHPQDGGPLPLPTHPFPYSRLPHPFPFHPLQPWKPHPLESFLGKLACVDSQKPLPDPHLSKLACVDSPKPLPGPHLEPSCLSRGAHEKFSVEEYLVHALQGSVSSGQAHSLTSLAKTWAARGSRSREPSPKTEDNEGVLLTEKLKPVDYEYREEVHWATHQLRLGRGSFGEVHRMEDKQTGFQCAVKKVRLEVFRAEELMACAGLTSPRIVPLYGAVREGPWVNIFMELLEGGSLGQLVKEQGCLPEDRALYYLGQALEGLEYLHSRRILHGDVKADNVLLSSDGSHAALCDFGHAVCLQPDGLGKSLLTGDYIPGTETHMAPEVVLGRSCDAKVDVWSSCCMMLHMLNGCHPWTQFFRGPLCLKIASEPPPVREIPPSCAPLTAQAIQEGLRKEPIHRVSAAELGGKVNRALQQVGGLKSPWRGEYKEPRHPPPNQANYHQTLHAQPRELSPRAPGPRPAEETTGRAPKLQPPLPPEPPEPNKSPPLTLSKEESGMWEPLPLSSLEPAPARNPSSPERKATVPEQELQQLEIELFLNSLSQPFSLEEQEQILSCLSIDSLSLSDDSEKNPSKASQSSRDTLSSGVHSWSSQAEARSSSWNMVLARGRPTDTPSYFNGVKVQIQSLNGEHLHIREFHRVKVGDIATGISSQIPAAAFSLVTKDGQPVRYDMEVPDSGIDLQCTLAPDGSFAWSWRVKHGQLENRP
PROTOCOL NOTES: Inhibition of auto-phosphorylation of recombinant human NIK/MAP3K14 activity (AlphaScreen)
Type: biochemical
STATED CONDITIONS: averaged values over all measurements on all batches
In this section, each of the molecules is paired with its reported IC50.
Field format: number, assumed nM, no unit text.

Recorded results for 4 molecules are shown here.
CNC(=O)c1cc(Nc2nccc(-c3cc(C#N)c4c(c3)[C@@](C)(CO)CN4)n2)nn1C(C)C: 2.6
CN(C)C(=O)c1cc(Nc2nccc(-c3cc(C#N)c4c(c3)C(C)(CO)CN4)n2)n(C)n1 (centres unmarked): 2.6
CN1CCN(Cc2c(Nc3nccc(-c4cc(C#N)c5c(c4)[C@@](C)(CO)CN5)n3)cnn2C)CC1: 28.2
Cc1cc(Nc2nccc(-c3cc(C#N)c4c(c3)[C@@](C)(CO)CN4)n2)n(CC2CCCOC2)n1 (mixture of isomers): 5.6

Consider now this further molecule.
INPUT: Value lookup for IC50; key = CC(C)CCc1nn(C)cc1Nc1nccc(-c2cc(C#N)c3c(c2)[C@@](C)(CO)CN3)n1
OUTPUT: 2.1

----------
STUDY SYSTEM: recombinant human NF-kappaB-inducing kinase (NIK/MAP3K14) (Homo sapiens (Human), UniProt Q99558)
PROTOCOL NOTES: Inhibition of auto-phosphorylation of recombinant human NIK/MAP3K14 activity (AlphaScreen)
Format: biochemical
STATED CONDITIONS: averaged values over all measurements on all batches
Form field: IC50 (one value per entry).
Respond with the bare value in nM.

// below: answered molecules
Cc1cc(Nc2nccc(-c3cc(C#N)c4c(c3)[C@@](C)(CO)CN4)n2)n(CC2CCCO2)n1 (single isomer, unassigned) [Compound 52]: 6.9
Cc1nn(CC(F)F)cc1Nc1nccc(-c2cc(C#N)c3c(c2)[C@@](C)(CO)CN3)n1: 1
CN1CC[C@@H](Cn2nc(Cl)cc2Nc2nccc(-c3cc(C#N)c4c(c3)[C@@](C)(CO)CN4)n2)C1: 4.3

Note: attention shifts to another entry.
INPUT: Bench note: what IC50 did C[C@]1(CO)CNc2c(C#N)cc(-c3ccnc(Nc4cc(C#N)nn4CCC4CC4)n3)cc21 show?
OUTPUT: 3.7
